Listed here: items and their measured Bliss excess.
# Tested on: HCC1419 (Breast Carcinoma);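 also: after 72 h of two-drug dosing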
# assayInfo: Bliss excess, mean over the matrix (fraction); higher = more synergy

Completed entries (count: 2):
[
  {
    "molecule": "CN(C)CCCOc1ccc(-c2ccc3ncc4c(c3c2)n(C2CCOCC2)c(=O)n4C)cn1 [AZD0156] + C=CCn1c(=O)c2cnc(Nc3ccc(N4CCN(C)CC4)cc3)nc2n1-c1cccc(C(C)(C)O)n1 [AZD1775] (first compound max 1 µM, partner max 1 µM)",
    "experimentalSystem": "HCC1419 (Breast Carcinoma)",
    "Bliss excess": -0.0446
  },
  {
    "molecule": "Cc1c2c(nn1C)CSCc1cc(n(C)n1)CSc1cc(c3ccccc3c1)OCCCc1c(C(=O)O)n(C)c3c-2c(Cl)ccc13 [AZD5991] + C1CN(CCC1(C(=O)N[C@@H](CCO)C2=CC=C(C=C2)Cl)N)C3=NC=NC4=C3C=CN4 [Capivasertib] (first compound max 1 µM, 7x7, partner max 3 µM)",
    "experimentalSystem": "HCC1419 (Breast Carcinoma)",
    "Bliss excess": 0.0163
  }
]

We next turn to a different molecule, shown below.
# lookup: CN(CCO)CC[C@H](CSc1ccccc1)Nc1ccc(S(=O)(=O)NC(=O)c2ccc(N3CCC([C@@H](O)c4ccccc4-c4ccc(Cl)cc4)CC3)cc2)cc1S(=O)(=O)C(F)(F)F [AZD4320] + CCN(CCO)CCCOc1ccc2c(Nc3cc(CC(=O)Nc4cccc(F)c4)[nH]n3)ncnc2c1 [AZD2811] (first compound max 1 µM, 7x7, partner max 1 µM) on HCC1419 (Breast Carcinoma), Bliss excess = -0.0664
